# tested system: human hNET (Homo sapiens)
# Construct: expressed in transfected cells; host or cells: MDCK-Net6 (MDCK cells, stably transfected)
# Sequence (P23975 whole entry): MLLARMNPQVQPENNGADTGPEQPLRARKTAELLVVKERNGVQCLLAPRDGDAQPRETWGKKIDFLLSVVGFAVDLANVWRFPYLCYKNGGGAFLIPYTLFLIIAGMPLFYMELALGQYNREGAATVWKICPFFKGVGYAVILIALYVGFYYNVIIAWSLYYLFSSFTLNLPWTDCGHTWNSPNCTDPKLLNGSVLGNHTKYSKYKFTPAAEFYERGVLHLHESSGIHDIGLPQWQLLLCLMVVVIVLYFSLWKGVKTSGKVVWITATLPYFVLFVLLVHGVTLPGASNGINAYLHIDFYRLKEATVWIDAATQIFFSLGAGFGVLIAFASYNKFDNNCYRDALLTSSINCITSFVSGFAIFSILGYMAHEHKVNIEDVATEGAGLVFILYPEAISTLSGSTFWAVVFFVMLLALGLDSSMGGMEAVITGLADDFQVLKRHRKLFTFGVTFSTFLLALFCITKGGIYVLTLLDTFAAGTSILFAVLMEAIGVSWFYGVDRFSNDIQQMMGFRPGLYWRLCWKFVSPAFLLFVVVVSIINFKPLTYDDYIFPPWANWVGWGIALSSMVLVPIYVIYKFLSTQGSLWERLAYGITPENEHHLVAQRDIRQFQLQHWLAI
# assay info: Norepinephrine (NE) uptake assay in MDCK-Net6 cells
# Format: cell-based
# test parameters: 1 μM test compound, [3H]NE uptake, read-out: % Inhibition @ 1 μM (hNET)
Counter-ions that a name gives are not always drawn.
reported endpoint: inhibition at 1 µM (%)

compound	inhibition at 1 µM, %
CN1CCN(CC(c2ccc(OCc3ccccc3)cc2)C2(O)CCCCC2)CC1 (stereo not drawn) [Example 322, dihydrochloride]	97.2
CN1CCN(CC(c2ccc(-c3ccccc3Cl)cc2)C2(O)CCCCC2)CC1 (stereo not drawn) [Example 175, dihydrochloride]	20
CN1CCN(CC(c2ccc(-c3cc(Cl)cc(Cl)c3)cc2)C2(O)CCC2)CC1 (stereo not drawn) [Example 297, dihydrochloride]	4
COc1ccc(-c2cccc(C(CN3CCNCC3)C3(O)CCCCC3)c2)cc1OC (stereo not drawn) [Example 250, dihydrochloride]	15
CN1CCN(CC(c2ccc(OCc3ccccc3)c(Br)c2)C2(O)CCCCC2)CC1 (stereo not drawn) [Example 265, dihydrochloride]	44
OC1(C(CN2CCNCC2)c2cccc(OC(F)(F)F)c2)CCC1 (stereo not drawn) [Example 46, dihydrochloride]	44

I: OC1(C(CN2CCNCC2)c2ccccc2-c2cccc(Cl)c2)CCCCC1 (stereo not drawn) [Example 150, dihydrochloride]
II: OC1(C(CN2CCNCC2)c2ccc(OCc3ccccc3)cc2)CCC1 (stereo not drawn) [Example 70, dihydrochloride]
III: OC1(C(CN2CCNCC2)c2cccc(Oc3ccccc3)c2)CCCCC1 (stereo not drawn) [Example 311, dihydrochloride]
IV: OC1(C(CN2CCNCC2)c2ccc(OCc3ccc(C(F)(F)F)cc3)c(Cl)c2)CCCCC1 (stereo not drawn) [Example 419, dihydrochloride]
Query block: Could you please order the items by inhibition at 1 µM, going from the lowest number to the highest? List the labels in the requested order.
Result block: II, I, IV, III

A: OC1(C(CN2CCNCC2)c2cccc(-c3ccccc3)c2)CCCCC1 (stereo not drawn) [Example 136, dihydrochloride]
B: OC1([C@@H](CN2CCNCC2)c2ccc(OCc3ccccc3)c(Cl)c2)CCCCC1 [Example 323, dihydrochloride]
C: OC1(C(CN2CCNCC2)c2ccc(-c3ccccc3F)cc2)CCCCC1 (stereo not drawn) [Example 289, dihydrochloride]
Query block: List items by inhibition at 1 µM in falling order. List the labels in the requested order.
Result block: B, A, C

1: Cc1ccc(COc2ccc(C(CN3CCNCC3)C3(O)CCCCC3)cc2F)cc1 (stereo not drawn) [Example 417, dihydrochloride]
2: CCOc1ccc(C(CN2CCN(C)CC2)C2(O)CCCCC2)cc1OC(F)(F)F (stereo not drawn) [Example 405, dihydrochloride]
Query block: Of the two listed items, which has the higher inhibition at 1 µM? First: 1 Second: 2 Lab log: write the label of the selected item as the result.
Result block: 1
